- Test system: SK-OV-3 ovarian
- Test Name: NCI-60 one-dose screen, 48 h (100 = growth as untreated, 0 = no growth, -100 = all killed)
- Conditions: 10 µM unless noted
This is part of a sample that, as a whole, favours compounds with a hit. Of some 83,000 tested, about 20% had one in any assay.
Measured Metric: growth (%)
# unit: % | format: bare number

Lab note: compound C/C(=N\NC(=O)CSc1nc2ccccc2c(=O)n1CCc1ccc(S(N)(=O)=O)cc1)c1ccccn1 tested on SK-OV-3 ovarian; recorded growth was 20.8

Result for N#CC1C(C#N)C2c3ccccc3C=CN2C1C(=O)c1ccc(Br)cc1 (stereo not given) , tested on SK-OV-3 ovarian, growth: 108

Item CNCCn1c(=O)c2cc(OC)c(OC)cc2c2ccc3cc4c(cc3c21)OCO4 ; assay system SK-OV-3 ovarian; growth reported as -0.269

Noted growth for CCNC(=O)Oc1ccc(/C(=C(\C)c2ccccc2)c2ccc(OCCN(CC)CC)cc2)cc1 , tested on SK-OV-3 ovarian: 83.9

growth for SK-OV-3 ovarian with input CNCCOc1nc2c3cnccc3cc(-c3cc(OC)c(OC)c(OC)c3)c2c2ccncc12 equals -33.9

Observed growth, SK-OV-3 ovarian, O=C(/C=C/c1c(-c2ccc(Cl)cc2)nn(-c2ccccc2)c1C(F)(F)F)c1ccc(Cl)cc1 : 82.7

Record for C#CCNC(=O)[C@H](Cc1ccccc1)NC(=O)[C@]12CC[C@@H](C(=C)C)[C@@H]1[C@H]1CC[C@@H]3[C@@]4(C)CCC(=O)C(C)(C)[C@@H]4CC[C@@]3(C)[C@]1(C)CC2 under target or system SK-OV-3 ovarian: growth reported as 84.7

Noted growth for OCc1cnccc1NCCCOc1ccccc1 , tested on SK-OV-3 ovarian: 114

Measured growth (SK-OV-3 ovarian), entry NC(=NCc1ccccc1)C(N=Nc1ccccc1)C(=O)NCc1ccccc1 (stereo not given) : 95.6

Result for NC(=NCCCOc1ccc(F)cc1)Nc1ccc(I)cc1 , tested on SK-OV-3 ovarian, growth: 81.8

Log: SK-OV-3 ovarian, compound COc1ccccc1/C=C1\Oc2cc(OCCN3CCCC3)ccc2C1=O , growth = 98.2

Item O=C(Cn1c(C(=O)c2ccccc2)nc2ccccc21)c1ccc(F)cc1 ; assay system SK-OV-3 ovarian; growth reported as 110

Reported growth (SK-OV-3 ovarian) for entry COc1cc(C2C3=C(COC3=O)N(CCO)c3cc4c(cc32)CCC4)cc(OC)c1OC (stereo not given) is -32.1

Tested system SK-OV-3 ovarian; growth recorded for COc1cc(CC(=O)c2ccc(O)c(OC)c2)ccc1O was 99.7

Assay SK-OV-3 ovarian, sample CCCCCCCCO/N=C\c1c2c(O)c3c(O)c(C)c4c(c3c1O)C(=O)C(C)(O/C=C\C(OC)C(C)C(OC(C)=O)C(C)C(O)C(C)C(O)C(C)/C=C\C=C(\C)C(=O)N2)O4 (stereo not given) , growth read: 30.5

Note to self: growth of CCNC(=O)Oc1ccc(/C(=C(\C)c2ccccc2)c2ccc(OCCCN(C)C)cc2)cc1 with SK-OV-3 ovarian was 80.7

Lab note: compound NCCCCCCNc1cc(-c2cccc(OC(F)(F)F)c2)nc2ccc(N3CCCC3)cc12 tested on SK-OV-3 ovarian; recorded growth was 93.6

Summary: COc1ccc(OC)c(CCn2cncc2-c2c[nH]c3ccccc23)c1 , SK-OV-3 ovarian, growth = 72.9

Value (growth, SK-OV-3 ovarian) for record C=CCN1C(=O)/C(=C/C(=O)OC)S/C1=N\NC(=O)c1cc2ccc1/C=C\c1ccc(cc1)/C=C\2 = 140

GET /values?item= C#CCNC(=O)c1cccc2c1cc(C)n2-c1nc2c(c(NCc3ccccc3)n1)CCCC2 &system= SK-OV-3 ovarian returns growth: 2.45

* * *

- System: A498 renal
- Test Name: NCI-60 one-dose screen, 48 h
- Conditions: 10 µM unless noted
The panel holds about 83,000 compounds, 20% with a hit somewhere; the sample as a whole holds those more often. Activity calls are given as the source filed them. How the source made its calls: active means growth percent below 10; inactive means the rest.
Just give me one of these, please: active, inactive

Q. Outcome? COc1cc(C2C3=C(COC3=O)N(CCO)c3cc4c(cc32)OCO4)cc(OC)c1OC (stereo not given)
A. active

Q. // param item: O=C1NN(C(=O)c2ccccc2)C(c2ccc(Cl)c(Cl)c2)=C/C1=C\c1ccc([N+](=O)[O-])cc1 ; yields the recorded call
A. inactive

Q. In this assay, the call recorded for Cn1cc(-c2nc(-c3c[nH]c4c(Cl)nccc34)cs2)c2cc(F)ccc21 was what?
A. inactive

Q. Per the assay record, what outcome was assigned to OCc1cnccc1NCCCCOc1ccc(Oc2ccccc2)cc1 ?
A. inactive

Q. Recorded test outcome, item NS(=O)(=O)c1ccc(CCN2C(=O)c3cc(Cl)c(Cl)cc3C2=O)cc1
A. inactive

* * *

Kindly supply the reported growth values for the records listed here.
- Test system: SK-MEL-2 melanoma
- Test Name: NCI-60 one-dose screen, 48 h (100 = growth as untreated, 0 = no growth, -100 = all killed)
- Conditions: 10 µM unless noted
The panel holds about 83,000 compounds, 20% with a hit somewhere; the sample as a whole holds those more often. Activity calls are given as the source filed them. Rule for the calls: active = growth percent below 10; inactive = the rest.

growth reported for this molecule Cc1cc2nc3c4cc([N+](=O)[O-])ccc4n(CCN(C)C)c3nc2cc1C : -56.5% (active)

Looking up COc1ccc(C(=O)CSc2nc(-c3cc(OC)ccc3OC)cc(-c3ccc(Cl)cc3)c2C#N)cc1 , I found its growth recorded as 70.8% (inactive)

Summary for this molecule, O=C(Cc1ccc(/C=C/C(=O)c2ncc[nH]2)cc1)Nc1ccc(Cl)cc1 : growth is 94.9% (inactive)

growth recorded for this molecule, Cn1ccnc1C(=O)/C=C/c1ccc(CC(=O)NC2CCCCC2)cc1 , is 108% (inactive)

growth for OC(c1ccc(F)c(C(F)(F)F)c1)c1cnccc1NC1CCCCC1 (centres undefined) is 89.6% (inactive)

# molecule O=C(NCCc1ccccc1)Nc1ccc2cc3ccc(NC(=O)NCCc4ccccc4)cc3nc2c1 ; its growth = 0.339% (active)

Entry Cc1nn(-c2ccccc2)c(Oc2c(Cl)cccc2Cl)c1/C=N/N=c1\sc2ccccc2n1C ; growth = 80% (inactive)

Just so you know, measured growth for O=C(Cc1ccccc1)NNc1nc(Cl)nc(N2CCN(C(c3ccccc3)c3ccccc3)CC2)n1 came out at 99.8% (inactive)

# molecule O=C(/C(=C/c1ccc([N+](=O)[O-])cc1)SCc1ccc(F)cc1)c1ccc(F)cc1 ; its growth = 90.4% (inactive)

* * *

- Tested on: OVCAR-5 ovarian
- Test Name: NCI-60 one-dose screen, 48 h
- Conditions: 10 µM unless noted
The panel holds about 83,000 compounds, 20% with a hit somewhere; the sample as a whole holds those more often. Activity calls are given as the source filed them. Rule for the calls: active = growth percent below 10; inactive = the rest.
Lab note: assign the record to one of TRUE for active, FALSE for inactive

Q. Give the logged outcome of this assay for the following molecule: CCOC(=O)[C@@H](C)C[C@H](Cc1ccccc1)NC(=O)c1csc([C@@H](C[C@H](C(C)C)N(C)C(=O)[C@@H](NC(=O)[C@H]2C[C@H](O[Si](C)(C)C(C)(C)C)CCN2C)C(C)C)OC(C)=O)n1
A. TRUE

Q. How was CN1C(=O)NC(c2ccc3c(c2)OCO3)C=C1c1ccccc1 (stereo not drawn) classified in this test?
A. FALSE

Q. Name the outcome recorded for O=C(CNCCN1CCOCC1)N1c2cccc3cccc(c23)N(C(=O)CNCCN2CCOCC2)C1c1cn(-c2ccccc2)nc1-c1cccc([N+](=O)[O-])c1 in the assay.
A. FALSE

Q. Each molecule tested received a call. Report the one for O=C(CCN1CCCC1)Nc1ccc2c(NCc3ccccc3)c3ccccc3nc2c1 .
A. FALSE

Q. I'd appreciate the recorded outcome for N#CC(C#N)=Cc1cc2ccccc2nc1Oc1ccc(C(F)(F)F)cc1 from this test.
A. FALSE

Q. # outcome recorded in this test, key = CN1[C@@H]2CC[C@H]1/C(=C\c1ccccc1)C(=O)/C2=C/c1ccccc1
A. FALSE

Q. Query: recorded result category for O=C1c2ccccc2CCC12OC2c1cn(-c2ccccc2)nc1-c1ccc(Cl)cc1 (stereo not drawn) in this test
A. FALSE

Q. Called result for Cc1ccc(C(=O)/C(=C\c2ccc([N+](=O)[O-])cc2)S(=O)Cc2ccc(Cl)cc2)cc1 (stereo not drawn)
A. FALSE

* * *

- System: HOP-92 NSCLC
- Test Name: NCI-60 one-dose screen, 48 h
- Conditions: 10 µM unless noted
This is part of a sample that, as a whole, favours compounds with a hit. Of some 83,000 tested, about 20% had one in any assay. Active and inactive are the calls of the source. The calls were made as follows: active = growth percent below 10; inactive = the rest.
# output must be one of y for active, n for inactive

Q. GET /call?item= N#CC(C#N)=Cc1cc2ccccc2nc1Oc1ccc(C(F)(F)F)cc1 returns the recorded outcome of this test.
A. n

Q. # outcome recorded in this test, key = CC1=C(C(=O)/C=C/c2ccc(N(C)C)cc2)C(c2ccccc2)NC(=S)N1 (stereo not given)
A. n

Q. Status in this test for O=C(O)c1ccc(NCc2cn(-c3ccc(C(F)(F)F)cc3)nc2-c2ccc(C(=O)O)cc2)cc1 ?
A. y

Q. Record request — test call for O=C(CCN1CCCC1)Nc1ccc2c(Nc3ccc(Br)cc3)c3ccccc3nc2c1
A. n

Q. Lab log entry: O=[N+]([O-])CC(c1ccccc1)c1c[nH]c2ccccc12 (stereo not given) — outcome as called in the assay?
A. n

Q. What was the test verdict on OCc1cnccc1NCCCOc1ccccc1 ?
A. n

Q. Dear all, I need the recorded test outcome for Cn1cc(-c2nc(-c3c[nH]c4c(Cl)nccc34)cs2)c2cc(Br)ccc21 , thank you.
A. n

Q. Each compound tested received a call. Report the one for O=C(c1nnc(Nc2ccccc2Br)o1)c1c[nH]c2ccccc12 .
A. n

Q. Identify the outcome logged in this assay for the compound shown: O=C(CSc1nc2ccccc2[nH]1)NCc1ccccc1
A. n

Q. For this compound, state the assay outcome: COc1cccc(-c2cc(C(=O)Nc3ccc(/C=C/c4ccc(OC5CCN(C)CC5)cc4)cc3)ccc2OC)c1
A. n
